# test-target: T1, human Sdc2 (human, UniProt P34741 19-144, limits assumed)
# T1 construct: Antigen of the Octet tandem binning, loaded on biosensors at 100 nM; also called huSdc2; hSdc2
# T1 sequence (P34741 19-144 limits assumed): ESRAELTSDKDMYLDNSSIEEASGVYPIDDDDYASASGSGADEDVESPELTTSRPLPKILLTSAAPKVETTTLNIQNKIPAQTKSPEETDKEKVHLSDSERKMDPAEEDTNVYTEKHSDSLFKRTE
# assay-remarks: Octet tandem binning; saturating Ab m4 19844-R4M-P1-A10
property-label: raw competing-Ab binding signal
Lab note: jot down the number only; don't add units.

R3-P3-E09 (antibody, human IgG1, kappa, V domains shown, human IgG1 kappa from the phage campaign) VH: EVQLVETGGGVVQPGRSLTLSCGASEFTFSNYAMHWVRQAPGKGLEWVAVISYDGTKKYYGDSVKGRFTISRENIKNTLYLQMNSLRSEDTAVYYCARDVGKGVTATGTFDIWGQGTMVTVSS VL: AIRMTQSPSSLSASVGDRVTITCRASQGIGSYLAWFQQKPGEAPKSLIIDATRLKSGVPSRFSGSGSGTEFALTISSLRPEDFATYYCQQYNVSPLTFGGGTKVEIKR: 0.241
19838-6-N03-A (antibody, IgG1, V domains shown) VH: EVQLVESGGGLVKPGGSLKLSCEASGITFSNYVMSWVRQTPEKRLEWVATISDGGSYTYYPDNVKGRFTISRDNAKNNLYLQMSHLKSEDTAMYYCVRDRYDYDGRVYAMDYWGQGTSVTVSS VL: DVVMTQTPLSLPVSLGDQASISCRSSQSLVHSNGDTYLHWYLQKPGQSPKLLIYKVSNRFSGVPDRFSGSGSGTDFTLKITRVEAEDLGVYFCSQSTHVPWTFGGGTKLEIKR: 0.336
R4M-P3-E06 (antibody, human IgG1, kappa, V domains shown, human IgG1 kappa from the phage campaign) VH: EVQLVESGGGVVQPGGSLRLSCAASGFTFSNYGMHWVRQAPGKGLEWVATISYDGTKKYYPDSVRGRFTISRDNSENMLYLQMDSLRLEDTAVIYCAKDLVSGSRYGFAFDSWGPGTLVTVSS VL: DIVMTQSPLSLPVTLGQPASISCRSSQSLVHSDGNTYLNWFQQRPGQSPRRLIYKVSNRDSGVPDRFSGTGSGTDFTLKISRVEADDVGVYYCMQGTHWPPIFGQGTRLEIKR: 0.116

--- query ---
Return reported raw competing-Ab binding signal; argument: 8-G17-A (antibody, V domains shown, PentaMice hybridoma clone, made recombinantly in CHO cells) VH: EVQLVESGGGLVKPGGSLKLSCEASGITFSNYVMSWVRQTPEKRLEWVATISDGGSYTYYPDNLKGRFTISRDNAKNNLYLQMSHLKSEDTAMYYCVRDRYDYDGRVYAMDYWGQGTSVTVSS VL: DVVMTQTPLSLPVSLGDQASISCRSSQSLVHSNGNTYLHWYLQKPGQSPKLLIYKVSNRFSGVPDRFSGSGSGTDFTLKITRVEAEDLGVYFCSQSTHVPWTFGGGTKLEIKR
0.805
